Catalogue of compounds with associated growth
Test system: ACHN renal
Experiment: NCI-60 one-dose screen, 48 h (100 = growth as untreated, 0 = no growth, -100 = all killed)
Conditions: 10 µM unless noted
About 83,000 compounds went through this panel and 20% of them were active in at least one assay; those are over-represented in the sample as a whole.
Please respond with the number in % and leave the unit unwritten.

Recorded results for 3 compounds are shown here.
compound	growth [%]
Cc1ccc(NC(=O)c2ccc(CN3CCN(C)CC3)cc2)cc1Oc1ccc(-c2[nH]nc3ncnc(N)c23)cc1	101
Clc1nc2ccccc2nc1-c1nnc(C2CCCCC2)o1	99.2
COc1ccccc1-n1cc(C#N)c(N)c1C(=O)c1ccc(Cl)cc1	93

Kindly note the recorded growth for "CCOC(=O)c1c(Nc2ccccc2)nn2c(-c3cccs3)ccnc12" , which is 88.3

Kindly note the recorded growth for CCOC(=O)C(=O)/C(=C\c1ccc(Cl)cc1)C(=O)N1C(=S)NC(=O)C1CC(C)C (centres undefined) , which is 99.5

Kindly note the recorded growth for "CC1(C)[C@@H](O)CC[C@]2(C)[C@H]3CC[C@@H]4[C@H]5[C@H](C(=O)/C=C\c6ccccn6)CC[C@]5(O)CC[C@@]4(C)[C@]3(C)CC[C@@H]12" , which is 32.6

Kindly note the recorded growth for "Cc1ccc(NC(=O)c2ccc(CN3CCOCC3)c(C(F)(F)F)c2)cc1Oc1ccc(-c2[nH]nc3ncnc(N)c23)cc1" , which is 58.2

Kindly note the recorded growth for "CCCSc1nc(Nc2ccc(/C(C)=N\NC(N)=S)cc2)c(C#N)c(-c2ccccc2)n1" , which is 35.4

Kindly note the recorded growth for "ClC(Cl)c1nc(-c2ccco2)n2nc(-c3ccccc3)cc2n1" , which is -23.9
